Listing: MIC of selected compounds
- Test system: Mycobacterium avium
- Protocol notes: microbe, parasite or virus in culture
- Format: cell-based
- Experimental conditions: Experiment 2; three replicate columns; read-out: MIC (µM) Mycobacterium avium
Where a SMILES comes first, the peptide text is derived from it. [ ]: non-standard residue; d: D form. NMeLeu(5-OH,4R) = CN[C@@H](C[C@@H](C)CO)C(=O)O; Phe(βR-OMe) = CO[C@H](c1ccccc1)[C@H](N)C(=O)O; Trp(1-Me) = Cn1cc(C[C@H](N)C(=O)O)c2ccccc21; NMeL = CN[C@@H](CC(C)C)C(=O)O; Pra = C#CC[C@H](N)C(=O)O
Give the quantity in µM, number only.

{"Compound": "NCC[C@H](O)C(=O)N[C@@H]1C[C@H](N)[C@@H](O[C@H]2O[C@H](CN)[C@@H](O)[C@H](O)[C@H]2O)[C@H](O)[C@H]1O[C@H]1O[C@H](CO)[C@@H](O)[C@H](N)[C@H]1O [Amikacin, reference compound]", "Unit tag": "µM", "MIC": 1.71}

// below: MIC requested for another compound
Please report MIC for the following compound: C#CC[C@@H]1NC(=O)[C@H](CC(C)C)N(C)C(=O)[C@H](C(C)C)NC(=O)[C@H]([C@H](OC)c2ccccc2)NC(=O)[C@H](C)NC(=O)[C@H](C[C@@H](C)CO)N(C)C(=O)[C@H](Cc2cn(C)c3ccccc23)NC1=O [Compound 10] (cyclo(A[Phe(βR-OMe)]V[NMeL][Pra][Trp(1-Me)][NMeLeu(5-OH,4R)])) 12.5

====

- Tested on: Caco-2 monolayers
- Protocol notes: in vitro
- Experimental conditions: Caco-2
*1 amine or outer side, *2 acyl side, *3 side chain or, on linkers, in order; H or OH if unused. Where a SMILES comes first, the peptide text is derived from it. [ ]: non-standard residue; d: D form. X9 = C=CC(C)(C)n1cc(C[C@@H](C(=O)[*:2])N(C)[*:1])c2ccccc21; Ala(3R-Me,3-isobutenyl) = CC(C)=C[C@@H](C)[C@H](N)C(=O)O; NMeLeu(5-OH,4R) = CN[C@@H](C[C@@H](C)CO)C(=O)O; Phe(βR-OMe) = CO[C@H](c1ccccc1)[C@H](N)C(=O)O; NMeL = CN[C@@H](CC(C)C)C(=O)O
Assay metric: Caco-2 Int. Perm

{"Molecule": "C=CC(C)(C)n1cc(C[C@H]2C(=O)N(C)[C@@H](C[C@@H](C)CO)C(=O)N[C@@H](C)C(=O)N[C@@H]([C@H](OC)c3ccccc3)C(=O)N[C@@H](C(C)C)C(=O)N(C)[C@@H](CC(C)C)C(=O)N[C@@H]([C@H](C)C=C(C)C)C(=O)N2C)c2ccccc21 [Compound 23] (cyclo(A[Phe(βR-OMe)]V[NMeL][Ala(3R-Me,3-isobutenyl)][X9][NMeLeu(5-OH,4R)]))", "Caco-2 Int. Perm": "5.6 10-6 cm s-1"}
{"Molecule": "COC(c1ccc(OCc2cn(CCOCCOCCOCCOCCn3cc(COc4ccc(C(OC)C5NC(=O)C(C)NC(=O)C(CC(C)CO)N(C)C(=O)C(Cc6cn(C)c7ccccc67)N(C)C(=O)C(C(C)C)NC(=O)C(CC(C)C)N(C)C(=O)C(C(C)C)NC5=O)cc4)nn3)nn2)cc1)C1NC(=O)C(C)NC(=O)C(CC(C)CO)N(C)C(=O)C(Cc2cn(C)c3ccccc23)N(C)C(=O)C(C(C)C)NC(=O)C(CC(C)C)N(C)C(=O)C(C(C)C)NC1=O (stereo not shown)", "Caco-2 Int. Perm": "6.9 10-6 cm s-1"}
{"Molecule": "CO[C@H](c1ccccc1)[C@@H]1NC(=O)[C@H](C)NC(=O)[C@H](C[C@@H](C)CO)N(C)C(=O)[C@H](Cc2cn(CCCCn3cc(C[C@H]4C(=O)N(C)[C@@H](C[C@@H](C)CO)C(=O)N[C@@H](C)C(=O)N[C@@H]([C@H](OC)c5ccccc5)C(=O)N[C@@H](C(C)C)C(=O)N(C)[C@@H](CC(C)C)C(=O)N[C@@H](C(C)C)C(=O)N4C)c4ccccc43)c3ccccc23)N(C)C(=O)[C@H](C(C)C)NC(=O)[C@H](CC(C)C)N(C)C(=O)[C@H](C(C)C)NC1=O", "Caco-2 Int. Perm": "2.75 10-6 cm s-1"}

// below: Caco-2 Int. Perm requested for another molecule
Please report Caco-2 Int. Perm for the following molecule: COC(c1ccc(OCc2cn(CCOCCOCCOCCOCCn3cc(COc4ccc(C(OC)C5NC(=O)C(C)NC(=O)C(CC(C)CO)N(C)C(=O)C(Cc6cn(C)c7ccccc67)NC(=O)C(C(C)C)NC(=O)C(CC(C)C)N(C)C(=O)C(C(C)C)NC5=O)cc4)nn3)nn2)cc1)C1NC(=O)C(C)NC(=O)C(CC(C)CO)N(C)C(=O)C(Cc2cn(C)c3ccccc23)NC(=O)C(C(C)C)NC(=O)C(CC(C)C)N(C)C(=O)C(C(C)C)NC1=O (stereo not shown) 2.9 10-6 cm s-1

====

- Format: in vitro ADME, Rat
- Experimental conditions: rat, pH 7.4
- Protocol: Cryopreserved hepatocytes are incubated in an appropriate buffer system containing 50% species serum. […] The remaining amount of parent compound in the supernatants is then analysed by HPLC-MS/MS. Clearance is calculated from compound half-lives using the well-stirred liver model and is converted to clearance stated as % of the liver blood flow (% Qh).
*1 amine or outer side, *2 acyl side, *3 side chain or, on linkers, in order; H or OH if unused. Where a SMILES comes first, the peptide text is derived from it. [ ]: non-standard residue; d: D form. X3 = C#CCOc1ccc([C@@H](OC)[C@H](N[*:1])C(=O)[*:2])cc1; X2 = C#CCn1cc(C[C@@H](C(=O)[*:2])N(C)[*:1])c2ccccc21; NMeTrp(1-Me) = CN[C@@H](Cc1cn(C)c2ccccc12)C(=O)O; X4 = C=CCO[C@H](c1ccccc1)[C@H](N[*:1])C(=O)[*:2]; NMeLeu(5-OH,4R) = CN[C@@H](C[C@@H](C)CO)C(=O)O; Phe(βR-OMe) = CO[C@H](c1ccccc1)[C@H](N)C(=O)O; Trp(1-Me) = Cn1cc(C[C@H](N)C(=O)O)c2ccccc21; NMeL = CN[C@@H](CC(C)C)C(=O)O
Listing: Hepatocyte Rat of selected compounds
Give the quantity in %Qh, number only.

Here is how some compounds turned out for Hepatocyte Rat.
{"Compound": "CO[C@H](c1ccccc1)[C@@H]1NC(=O)[C@H](C)NC(=O)[C@H](C[C@@H](C)CO)N(C)C(=O)[C@H](Cc2cn(C)c3ccccc23)NC(=O)[C@H](CCC(=O)N(C)C)NC(=O)[C@H](CC(C)C)N(C)C(=O)[C@H](C(C)C)NC1=O [SI-74] (cyclo(A[Phe(βR-OMe)]V[NMeL]E(NMe2)[Trp(1-Me)][NMeLeu(5-OH,4R)]))", "Unit tag": "%Qh", "Hepatocyte Rat": 49}
{"Compound": "C#CCOc1ccc([C@@H](OC)[C@@H]2NC(=O)[C@H](C)NC(=O)[C@H](C[C@@H](C)CO)N(C)C(=O)[C@H](Cc3cn(C)c4ccccc34)NC(=O)[C@H](C(C)C)NC(=O)[C@H](CC(C)C)N(C)C(=O)[C@H](C(C)C)NC2=O)cc1 [SI-38] (cyclo(A[X3]V[NMeL]V[Trp(1-Me)][NMeLeu(5-OH,4R)]))", "Unit tag": "%Qh", "Hepatocyte Rat": 37}
{"Compound": "C=CCO[C@H](c1ccccc1)[C@@H]1NC(=O)[C@H](C)NC(=O)[C@H](C[C@@H](C)CO)N(C)C(=O)[C@H](Cc2cn(C)c3ccccc23)NC(=O)[C@H](C(C)C)NC(=O)[C@H](CC(C)C)N(C)C(=O)[C@H](C(C)C)NC1=O [Compound 14] (cyclo(A[X4]V[NMeL]V[Trp(1-Me)][NMeLeu(5-OH,4R)]))", "Unit tag": "%Qh", "Hepatocyte Rat": 57}

Please report Hepatocyte Rat for the following compound: C#CCn1cc(C[C@H]2C(=O)N(C)[C@@H](C[C@@H](C)CO)C(=O)N[C@@H](C)C(=O)N[C@@H]([C@H](OC)c3ccccc3)C(=O)N[C@@H](C(C)C)C(=O)N(C)[C@@H](CC(C)C)C(=O)N[C@@H](C(C)C)C(=O)N2C)c2ccccc21 [Compound 26] (cyclo(A[Phe(βR-OMe)]V[NMeL]V[X2][NMeLeu(5-OH,4R)])) 68

Please report Hepatocyte Rat for the following compound: CO[C@H](c1ccccc1)[C@@H]1NC(=O)[C@H](C)NC(=O)[C@H](C[C@@H](C)CO)N(C)C(=O)[C@H](Cc2cn(C)c3ccccc23)N(C)C(=O)[C@H](CCC(=O)N(C)C)NC(=O)[C@H](CC(C)C)N(C)C(=O)[C@H](C(C)C)NC1=O [SI-76] (cyclo(A[Phe(βR-OMe)]V[NMeL]E(NMe2)[NMeTrp(1-Me)][NMeLeu(5-OH,4R)])) 52

Please report Hepatocyte Rat for the following compound: CO[C@H](c1ccccc1)[C@@H]1NC(=O)[C@H](C)NC(=O)[C@H](C[C@@H](C)CO)N(C)C(=O)[C@H](Cc2cn(Cc3cn(CCCCCn4cc(Cn5cc(C[C@@H]6NC(=O)[C@H](C(C)C)NC(=O)[C@H](CC(C)C)N(C)C(=O)[C@H](C(C)C)NC(=O)[C@H]([C@H](OC)c7ccccc7)NC(=O)[C@H](C)NC(=O)[C@H](C[C@@H](C)CO)N(C)C6=O)c6ccccc65)nn4)nn3)c3ccccc23)NC(=O)[C@H](C(C)C)NC(=O)[C@H](CC(C)C)N(C)C(=O)[C@H](C(C)C)NC1=O [Compound 9] 6
